target_under_test: His6-ERα298-554 D538G mutant (ERα ligand-binding domain) (Homo sapiens (Human), UniProt P03372, D538G)
Sequence (P03372 298-554 D538G): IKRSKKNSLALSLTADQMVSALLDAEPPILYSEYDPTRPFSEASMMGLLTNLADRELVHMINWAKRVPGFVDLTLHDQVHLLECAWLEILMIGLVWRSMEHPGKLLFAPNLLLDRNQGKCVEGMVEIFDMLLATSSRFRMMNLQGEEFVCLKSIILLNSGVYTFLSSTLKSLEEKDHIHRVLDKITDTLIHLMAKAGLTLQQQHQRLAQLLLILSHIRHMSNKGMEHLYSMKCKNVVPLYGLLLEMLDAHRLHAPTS
assay_details: Test A: biochemical antagonist activity, LanthaScreen TR-FRET ERα coactivator assay, D538G mutant
settings: protocol with 3 nM estradiol; read-out: Antagonism D538G IC50
# pIC50 listing for each entry below
Keep it numeric: pIC50 is minus log10 of the concentration in mol/L.

Example entries begin here.
Reported pIC50 for Oc1ccc2c(c1)C(c1ccc(O[C@H]3CCN(CCCF)C3)cc1)=C(c1ccc3[nH]ccc3c1)CC2 [Example 5] was 6.68

Briefly, pIC50 measured for Cc1ccc(C2=C(c3ccc(O[C@H]4CCN(CCCF)C4)cc3)c3ccc(O)cc3S(=O)(=O)CC2)c(F)c1 [Example 230] : 7.00

In plain terms, O=S1(=O)CCC(c2ccc(F)cc2Cl)=C(c2ccc(O[C@H]3CCN(CCCF)C3)cc2)c2ccc(O)cc21 [Example 229] has a documented pIC50 of 7.07

---
So, Oc1ccc2c(c1)OCCC(c1ccc3cc[nH]c3c1)=C2c1ccc(O[C@H]2CCN(CCCF)C2)cc1 [Example 103] ? Its pIC50 was 6.60

The measured pIC50 associated with Cc1c(Cl)cccc1C1=C(c2ccc(O[C@H]3CCN(CCCF)C3)cc2)c2ccc(O)cc2SCC1 [Example 163] reads 7.62

Sourced from patent US11149031B2
